# Test system: MCF7
# assay_procedure: NCI tumour cell line growth inhibition, 48 h
Calls of active or inactive are those of the source. No stated cut-off is given here; in the data, active = GI50 up to about 1.1 µM and inactive = higher.
Allowed answers: active, inactive

Illustrative cases are given below, each with its answer.
| compound | system | discrete_label |
| --- | --- | --- |
| COc1cc(-c2c3c(cc4c2OCO4)[C@@H](Nc2ccc(-c4ccc(-c5ccc(N[C@@H]6c7cc8c(cc7C(c7cc(OC)c(O)c(OC)c7)[C@H]7C(=O)OC[C@H]67)OCO8)cc5)cc4)cc2)[C@H]2COC(=O)[C@@H]2C3)cc(OC)c1O (some centres undefined) | MCF7 | inactive |
| COc1cc(S(=O)(=O)Nc2ccc(-c3csc(N)n3)cc2)ccc1Cl | MCF7 | inactive |
| N#Cc1c(Cl)c2cc([N+](=O)[O-])ccc2n2c1nc1ccccc12 | MCF7 | inactive |

Query: Which result was noted for this compound in the test: CCCCCCCCCC[C@H](O)[C@H]1CC[C@@H]([C@@H](O)CC[C@H](O)[C@@H]2CCC(CCCCCCC[C@@H](O)CC3=C[C@H](C)OC3=O)O2)O1 (some centres undefined)
Result: inactive

Query: Call for entry C[C@]12CC[C@@H]3c4ccc(O)cc4CC[C@H]3[C@@H]1C/C(=C\c1ccncc1)[C@@H]2O :
Result: inactive

Query: For COC(=N)CCCl , which call appears in the assay record?
Result: inactive

Query: Recorded test call requested for COc1ccc(C(OCC2OC(n3cc(C)c(=O)[nH]c3=O)CC2n2cc(Cn3cc(Cl)c(=O)[nH]c3=O)nn2)(c2ccccc2)c2ccccc2)cc1 (centres undefined)
Result: inactive

Query: Field: outcome | Entry: C1=N\CCOCC/N=C/c2ccccc2OCc2cccc(n2)COc2ccccc2/1
Result: inactive

Query: Can you look up the reported call for CC(C)(C)[Si](C)(C)OCCc1ccccc1C1CC2(S(=O)(=O)c3ccccc3)ON1CC2S(=O)(=O)c1ccccc1 (centres undefined) for me?
Result: inactive

Query: Field: outcome | Entry: C/C(CC(O)(C(F)(F)Cl)C(F)(F)Cl)=N\Nc1ccccc1
Result: inactive
